- assay: Pharmacokinetic measurement in C57BL/6 mice, single subcutaneous dose, plasma ELISA
- Assay type: in vivo
- conditions-used: single subcutaneous dose 30 nmol/kg, plasma
endpoint-label: Cmax (nM)
// units = nM; emit number, no label

Request: Supply recorded Cmax for Compound 19: GLP-1/FGF21 fusion polypeptide SEQ ID NO: 19 conjugated with Moiety A at 51K and 222K (conjugate, Moiety A conjugated at K51 and K222) HGEGTFTSDVSSYLEEQAAREFIAWLVRGGGGGGGSGGGGSGGGGSGGGGKHPIPDSSPLLQFGGQVRQRYLYTDDAQQTEAHLEIREDGTVGGAADQSPESLLQLRALRPGVIQILGVRTSRFLCQRPDGALYGSLHFDPEACSFRELLLEDGYNVYQSEAHGLPLHLPGQRSPHRDPAPRGPARFLPLPGLPPALPEPPGILAPQPPDVGSSDPLSLVGKSQGRSPSYES here.
Result: 59.9

Request: Tell us which Cmax value is on record for Compound 4: GLP-1/FGF21 fusion polypeptide SEQ ID NO: 4 conjugated with Moiety A at 51K and 231K (conjugate, Moiety A conjugated at K51 and K231) HGEGTFTSDVSSYLEEQAAREFIAWLVRGGGGGGGSGGGGSGGGGSGGGGKHPIPDSSPLLQFGGQVRQRYLYTDDAQQTEAHLEIREDGTVGGAADQSPESLLQLRALRPGVIQILGVRTSRFLCQRPDGALYGSLHFDPEACSFRELLLEDGYNVYQSEAHGLPLHLPGQRSPHRDPAPRGPARFLPLPGLPPALPEPPGILAPQPPDVGSSDPLSLVGGSQGRSPSYKS
Result: 58.3

Request: Return Cmax (reported value) for this molecule: Compound 63: GLP-1/FGF21 fusion polypeptide SEQ ID NO: 160 conjugated with Moiety B at 51C and 222C (conjugate, Moiety B conjugated at C51 and C222) HGEGTFTSDVSSYLEEQAAKEFIAWLVKGGGGGGGSGGGGSGGGGSGGGGCHPIPDSSPLLQFGGQVRQRYLYTDDAQQTEAHLEIREDGTVGGAADQSPESLLQLKALKPGVIQILGVKTSRFLCQRPDGALYGSLHFDPEACSFRELLLEDGYNVYQSEAHGLPLHLPGQKSPHRDPAPRGPARFLPLPGLPPALPEPPGILAPQPPDVGSSDPLSLVGCSQGRSPSYES
Result: 88.8
